meta.source: paper PMC3735939

Jin net incorporation rate from plasma unesterified FA values for the molecules below.
# method.summary: In vivo kinetics of FA incorporation and turnover in brain phospholipids (intravenous radiotracer infusion, kinetic model)
# Set-up: species or system rat
# experimental.parameters: Total PL; MEP
quantity: Jin net incorporation rate from plasma unesterified FA (nmol/g/day)

molecule | recorded.result
CC/C=C\C/C=C\C/C=C\C/C=C\C/C=C\CCCCCC(=O)O [EPA→n-3 DPA] | 5.0
CC/C=C\C/C=C\C/C=C\C/C=C\C/C=C\C/C=C\CCC(=O)O [DHA, docosahexaenoic acid] | 16
CC/C=C\C/C=C\C/C=C\C/C=C\C/C=C\C/C=C\CCC(=O)O [EPA→DHA] | 0.45
